Test system: Escherichia coli
Assay info: microbe, parasite or virus in culture
Measurement setup: ATCC 25922
Description: Antibacterial activity against Escherichia coli ATCC 25922 by microdilution assay
Reported metric: MIC (µg/mL)

CCCCCCCCCCO[C@@H]1[C@@H](N)[C@@H](O[C@H]2[C@H](O)[C@@H](OCCCCCCCCCC)[C@H](N)C[C@@H]2N)O[C@H](CN)[C@H]1O
2
CCCCCCCCCCCO[C@@H]1[C@@H](N)[C@@H](O[C@H]2[C@H](O)[C@@H](OCCCCCCCCCCC)[C@H](N)C[C@@H]2N)O[C@H](CN)[C@H]1O
4
CCCCCCCCCCCO[C@@H]1[C@@H](N)[C@@H](O[C@H]2[C@H](O)[C@@H](OCCCCCCC)[C@H](N)C[C@@H]2N)O[C@H](CN)[C@H]1O
2
NCC[C@H](O)C(=O)N[C@@H]1C[C@H](N)[C@@H](O[C@H]2O[C@H](CN)[C@@H](O)[C@H](O)[C@H]2O)[C@H](O)[C@H]1O[C@H]1O[C@H](CO)[C@@H](O)[C@H](N)[C@H]1O
4
CCCCCCCCCCCO[C@@H]1[C@@H](O)[C@H](O[C@H]2O[C@H](CN)[C@@H](O)[C@H](OCCCCCCC)[C@H]2N)[C@@H](N)C[C@H]1N
16

---

Test system: Staphylococcus aureus
Assay info: Antibacterial activity against methicillin-resistant Staphylococcus aureus ATCC 33592 by microdilution assay
Type: functional
Reported metric: MIC

NC[C@H]1O[C@H](O[C@H]2[C@H](O)[C@@H](OCCCc3ccc4ccccc4c3)[C@H](N)C[C@@H]2N)[C@H](N)[C@@H](OCCCc2ccc3ccccc3c2)[C@@H]1O
2 µg/mL
NC[C@@H]1O[C@H](O[C@H]2[C@@H](O)[C@H](O[C@@H]3[C@@H](O)[C@H](N)C[C@H](N)[C@H]3O[C@H]3O[C@H](CN)[C@@H](O)[C@H](O)[C@H]3N)O[C@@H]2CO)[C@H](N)[C@@H](O)[C@@H]1O
> 128 µg/mL
CCCCCCCCCCO[C@@H]1[C@@H](N)[C@@H](O[C@H]2[C@H](O)[C@@H](OCCCCCCCCCC)[C@H](N)C[C@@H]2N)O[C@H](CN)[C@H]1O
1 to 2 µg/mL

---

# Lookup of reported MIC keyed by entry
System: Escherichia coli
Assay info: microbe, parasite or virus in culture
Measurement setup: ATCC 25922
Reported metric: MIC

CCCCCCCCCCCO[C@@H]1[C@@H](O)[C@H](O[C@H]2O[C@H](CN)[C@@H](O)[C@H](O)[C@H]2N)[C@@H](N)C[C@H]1N
> 128 µg/mL
CCCCCCCCCO[C@@H]1[C@@H](N)[C@@H](O[C@H]2[C@H](O)[C@@H](OCCCCCCCCC)[C@H](N)C[C@@H]2N)O[C@H](CN)[C@H]1O
2 to 4 µg/mL
CCCCCCCO[C@@H]1[C@@H](N)[C@@H](O[C@H]2[C@H](O)[C@@H](OCCCCCCC)[C@H](N)C[C@@H]2N)O[C@H](CN)[C@H]1O
32 µg/mL

---

Tested on: Pseudomonas aeruginosa
Assay info: Antibacterial activity against Pseudomonas aeruginosa FO3 harboring AAC6'-2A by microdilution assay
Assay type: functional
Reported metric: MIC (µg/mL)

NC[C@@H]1O[C@H](O[C@H]2[C@@H](O)[C@H](O[C@@H]3[C@@H](O)[C@H](N)C[C@H](N)[C@H]3O[C@H]3O[C@H](CN)[C@@H](O)[C@H](O)[C@H]3N)O[C@@H]2CO)[C@H](N)[C@@H](O)[C@@H]1O
128
CCCCCCCCCCCO[C@@H]1[C@@H](O)[C@H](O[C@H]2O[C@H](CN)[C@@H](O)[C@H](OCCCCCCC)[C@H]2N)[C@@H](N)C[C@H]1N
4
CCCCCCCCCCCO[C@@H]1[C@@H](N)[C@@H](O[C@H]2[C@H](O)[C@@H](OCCCCCCCCCCC)[C@H](N)C[C@@H]2N)O[C@H](CN)[C@H]1O
16
